# Tested on: HIV-1/106-Ala
# experimentSummary: Inhibition of HIV-1 induced syncytium formation in CEM cells, RT mutant 106-Ala
# Format: cell-based
# statedConditions: Human immunodeficiency virus 1, CCRF-CEM, 96 h, Table 2B, day 4, averages of 2 to 3 independent experiments, read-out: Antiviral Activity of Comparative Compounds EC50, 106-Ala
Each record gets a class by EC50: low bin: < 0.2 µg/mL; mid bin: ≥ 0.2 µg/mL and < 0.8 µg/mL; high bin: ≥ 0.8 µg/mL

>  <molecule>
Cc1occc1C(=S)Nc1ccc(Cl)c(OCC(C)(C)C)c1 [Compound 39]

>  <category>
high bin

$$$$
>  <molecule>
Cc1ccccc1C(=S)Nc1ccc(Cl)c(C(=O)OC(C)C)c1 [Compound 91]

>  <category>
high bin

$$$$
>  <molecule>
CC=CCOc1cc(NC(=S)c2ccn(C)c2C)ccc1Cl [Compound 19]

>  <category>
mid bin

$$$$
>  <molecule>
CC=CCOc1cc(NC(=S)c2ccoc2C)ccc1Cl [Compound 2]

>  <category>
low bin

$$$$
>  <molecule>
CC=CCOc1cc(NC(=S)c2ccsc2C)ccc1Cl [Compound 1]

>  <category>
low bin

$$$$
>  <molecule>
CC(C)(C)ON=Cc1cc(NC(=S)c2ccccc2)ccc1Cl [Compound 93]

>  <category>
low bin

$$$$
>  <molecule>
CC(C)OC(=O)c1cc(NC(=S)c2ccccc2)ccc1Cl [Compound 63]

>  <category>
high bin

$$$$
>  <molecule>
Cc1occc1C(=O)Nc1ccc(Cl)c(C(=O)OC(C)C2CC2)c1 (stereo not drawn) [Compound 54]

>  <category>
high bin

$$$$
>  <molecule>
Cc1occc1C(=S)Nc1ccc(Cl)c(C(=O)OCC(C)C)c1 [Compound 103]

>  <category>
low bin

$$$$
>  <molecule>
C=C(C)COC(=O)c1cc(NC(=O)c2ccoc2C)ccc1Cl [Compound 50]

>  <category>
high bin

$$$$
>  <molecule>
CC=CCOc1cc(NC(=O)c2ccoc2C)ccc1Cl [Compound 40]

>  <category>
high bin

$$$$
>  <molecule>
Cc1ccccc1C(=O)Nc1ccc(Cl)c(C(=O)OC2CCCCC2)c1 [Compound 70]

>  <category>
high bin

$$$$
>  <molecule>
C=C(C)COC(=O)c1cc(NC(=S)c2ccoc2C)ccc1Cl [Compound 51]

>  <category>
low bin

$$$$
>  <molecule>
COc1ccccc1C(=S)Nc1ccc(Cl)c(C(=O)OC2CCCCC2)c1 [Compound 81]

>  <category>
mid bin

$$$$
>  <molecule>
COc1ccccc1C(=S)Nc1ccc(Cl)c(C(=O)OC2CCCC2)c1 [Compound 69]

>  <category>
mid bin

$$$$
>  <molecule>
C#CCON=Cc1cc(NC(=S)c2ccoc2C)ccc1Cl [Compound 112]

>  <category>
mid bin

$$$$
>  <molecule>
Cc1ccsc1C(=S)Nc1ccc(Cl)c(C(=O)OC(C)C)c1 [Compound 88]

>  <category>
mid bin

$$$$
>  <molecule>
C=CCON=Cc1cc(NC(=S)c2ccoc2C)ccc1Cl [Compound 111]

>  <category>
low bin

$$$$
>  <molecule>
Cc1sccc1C(=S)Nc1ccc(Cl)c(C(=O)OC(C)C)c1 [Compound 16]

>  <category>
low bin

$$$$
>  <molecule>
Cc1ccsc1C(=S)Nc1ccc(Cl)c(C=NOC(C)C)c1 [Compound 95]

>  <category>
low bin

$$$$
>  <molecule>
CC=CCOc1cc(NC(=O)C2=C(CC)OCCS2)ccc1Cl [Compound 43]

>  <category>
high bin

$$$$
>  <molecule>
CCOC(=O)CSc1cc(NC(=S)c2ccoc2C)ccc1Cl [Compound 116]

>  <category>
high bin

$$$$
>  <molecule>
CC=CCOc1cc(NC(=O)c2ccsc2C)ccc1Cl [Compound 45]

>  <category>
high bin

$$$$
>  <molecule>
Cc1occc1C(=S)Nc1ccc(Cl)c(SCC(=O)OC(C)(C)C)c1 [Compound 17]

>  <category>
mid bin

$$$$
>  <molecule>
CCC(CC)OC(=O)c1cc(NC(=O)c2ccccc2N)ccc1Cl [Compound 66]

>  <category>
high bin

$$$$
>  <molecule>
CC(C)OC(=O)c1cc(NC(=S)c2cccs2)ccc1Cl [Compound 89]

>  <category>
high bin

$$$$
>  <molecule>
Cc1occc1C(=S)Nc1ccc(Cl)c(C(=O)OC2CCCCC2)c1 [Compound 83]

>  <category>
low bin

$$$$
>  <molecule>
CC(C)OC(=O)c1cc(NC(=S)c2ccsc2)ccc1Cl [Compound 92]

>  <category>
mid bin

$$$$
>  <molecule>
O=C(OC1CCCCC1)c1cc(NC(=S)c2ccccc2F)ccc1Cl [Compound 65]

>  <category>
mid bin

$$$$
>  <molecule>
Cc1occc1C(=S)Nc1ccc(Cl)c(OCCC(C)C)c1 [Compound 44]

>  <category>
low bin

$$$$
>  <molecule>
CON=Cc1cc(NC(=S)c2ccoc2C)ccc1Cl [Compound 72]

>  <category>
mid bin

$$$$
>  <molecule>
Cc1occc1C(=S)Nc1ccc(Cl)c(C=NOC(C)C)c1 [Compound 97]

>  <category>
high bin

$$$$
>  <molecule>
CCC(CC)OC(=O)c1cc(NC(=S)c2ccoc2C)ccc1Cl [Compound 107]

>  <category>
mid bin

$$$$
>  <molecule>
CCC(CC)COC(=O)c1cc(NC(=S)c2ccoc2C)ccc1Cl [Compound 108]

>  <category>
low bin

$$$$
>  <molecule>
CC(C)OC(=O)c1cc(NC(=S)c2ccccc2N)ccc1Cl [Compound 85]

>  <category>
high bin

$$$$
>  <molecule>
CC(C)C(OC(=O)c1cc(NC(=S)c2ccccc2F)ccc1Cl)C(C)C [Compound 98]

>  <category>
high bin

$$$$

###

Recorded CC50 for the following compounds
# experimentSummary: in vitro
# Format: cell-based
# statedConditions: human, cem cells, CC50 (50% cytostatic concentration), Table 2B; CEM cell proliferation; averages of 2 to 3 independent experiments

>  <compound>
C=CCON=Cc1cc(NC(=S)c2ccoc2C)ccc1Cl

>  <valuePrefix>
=

>  <CC50 / µg/mL>
12

$$$$
>  <compound>
C#CCOc1cc(NC(=S)c2ccoc2C)ccc1Cl

>  <valuePrefix>
=

>  <CC50 / µg/mL>
18

$$$$
>  <compound>
Cc1occc1C(=S)Nc1ccc(Cl)c(COC(C)(C)C)c1

>  <valuePrefix>
=

>  <CC50 / µg/mL>
18

$$$$
>  <compound>
Cc1sccc1C(=S)Nc1ccc(Cl)c(OCC(=O)OC(C)(C)C)c1

>  <valuePrefix>
=

>  <CC50 / µg/mL>
2.1

$$$$
>  <compound>
CC(C)OC(=O)c1cc(NC(=O)c2ccccc2)ccc1Cl

>  <valuePrefix>
=

>  <CC50 / µg/mL>
6.2

$$$$
>  <compound>
Cc1occc1C(=S)Nc1ccc(Cl)c(C(=O)OCC(F)(F)F)c1

>  <valuePrefix>
>

>  <CC50 / µg/mL>
100

$$$$
>  <compound>
COc1ccc(NC(=S)c2ccoc2C)cc1CC(=O)OC(C)C

>  <valuePrefix>
>

>  <CC50 / µg/mL>
100

$$$$
>  <compound>
CC=CCOc1cc(NC(=S)c2ccsc2C)ccc1Cl

>  <valuePrefix>
=

>  <CC50 / µg/mL>
5.9

$$$$
>  <compound>
Cc1occc1C(=S)Nc1ccc(Cl)c(C(=O)OC(C(C)C)C(C)C)c1

>  <valuePrefix>
=

>  <CC50 / µg/mL>
3.7

$$$$
>  <compound>
CC=CCOc1cc(NC(=S)c2ccoc2C)ccc1Cl

>  <valuePrefix>
=

>  <CC50 / µg/mL>
9

$$$$
>  <compound>
Cc1occc1C(=S)Nc1ccc(Cl)c(C(=O)OC(C)C)c1

>  <valuePrefix>
=

>  <CC50 / µg/mL>
5.2

$$$$
>  <compound>
Cc1occc1C(=S)Nc1ccc(Cl)c(C(=O)OC2CCCCC2)c1

>  <valuePrefix>
=

>  <CC50 / µg/mL>
9.7

$$$$
>  <compound>
CC=CCOc1cc(NC(=S)c2ccn(C)c2C)ccc1Cl

>  <valuePrefix>
=

>  <CC50 / µg/mL>
5.2

$$$$
>  <compound>
Cc1sccc1C(=S)Nc1ccc(Cl)c(OCC(C)(C)C)c1

>  <valuePrefix>
=

>  <CC50 / µg/mL>
6.2

$$$$
>  <compound>
Cc1ccsc1C(=S)Nc1ccc(Cl)c(C(=O)OC(C(C)C)C(C)C)c1

>  <valuePrefix>
≥

>  <CC50 / µg/mL>
100

$$$$
>  <compound>
Cc1occc1C(=O)Nc1ccc(Cl)c(COC(C)(C)C)c1

>  <valuePrefix>
=

>  <CC50 / µg/mL>
6.2

$$$$
>  <compound>
Cc1sccc1C(=O)Nc1ccc(Cl)c(OCCC(C)C)c1

>  <valuePrefix>
=

>  <CC50 / µg/mL>
7

$$$$
>  <compound>
Cc1occc1C(=S)Nc1ccc(Cl)c(C=NOC2CCCC2)c1

>  <valuePrefix>
=

>  <CC50 / µg/mL>
5.4

$$$$
>  <compound>
CC(C)OC(=O)c1cc(NC(=S)c2cccs2)ccc1Cl

>  <valuePrefix>
=

>  <CC50 / µg/mL>
4.9

$$$$
>  <compound>
Cc1occc1C(=S)Nc1ccc(Cl)c(C(=O)OC(C)C2CC2)c1 (centres unmarked)

>  <valuePrefix>
=

>  <CC50 / µg/mL>
17

$$$$
